- System: DU-145 prostate
- assay explanation: NCI-60 one-dose screen, 48 h
- particulars: 10 µM unless noted
This is part of a sample that, as a whole, favours compounds with a hit. Of some 83,000 tested, about 20% had one in any assay. Active and inactive are the calls of the source. Rule for the calls: active = growth percent below 10; inactive = the rest.
Valid outcomes are listed here; reply with one: true (active), false (inactive)

O=C(COc1ccc(/C=C2\CSc3ccccc3C2=O)cc1)Nc1nccs1; false
C#CCOc1ccc2ncnc(Nc3cccc(CNC(=O)CCl)c3)c2c1; false
O=C(/C=C/C=C/c1ccc2c(c1)OCO2)N/N=C\c1ccc(O)cc1O; false
O=C(N=Nc1c(O)[nH]c2ccccc12)c1cc(-c2ccccc2)on1; false
O=C1Nc2cc(-c3ccc(O)cc3)ccc2/C1=C/c1ccc[nH]1; true

GET /call?item= O=C(COc1cccc(/C=C2\COc3ccc(Cl)cc3C2=O)c1)c1ccc(Cl)cc1 returns the recorded outcome of this test.
false

What is the recorded call for this molecule in the test? c1ccc(-c2cc3n4c(-c5ccccc5)nn(-c5ccccc5)c4cnc-3n2)cc1
false

What was the test verdict on N#CN1CC[C@H](C(=O)Nc2cc3cc(C(N)=O)ccc3cn2)C1 ?
true

Each molecule tested received a call. Report the one for CC(C)CC1C(=O)N2CCC[C@H]2C2(O)O[C@](NC(=O)C3C=C4c5cccc6[nH]c(Br)c(c56)C[C@H]4N(C)C3)(C(C)C)C(=O)N12 (some centres not stated) .
false

# fetch the recorded call for COc1ccc(-c2nc3cc(C(=O)Nc4cc(OC)c(OC)c(OC)c4)ccc3n2C2CCCCC2)cc1 here
false

Hey, what did the test say about C#CCOc1ccc2ncnc(Nc3cccc(CNC(=O)C=C)c3)c2c1 ?
false

Called result for CCCSc1ccc2nc(NC(=O)OC)[nH]c2c1
false

Each molecule tested received a call. Report the one for COc1ccc(CN2c3ccccc3Oc3ccccc32)cc1F .
false

So what was the verdict on CC(C)(O)c1cn(CCCCN2C(=O)C(=O)c3ccccc32)nn1 in this test?
false

Each molecule tested received a call. Report the one for Cn1cc(-c2nonc2-c2c[nH]c3ccc(F)cc23)c2cccnc21 .
false

Test call for this molecule, please: N#Cc1nnn(-c2ccc(S(N)(=O)=O)cc2)c1NC(=O)CCl
false

In this assay, the call recorded for FC(F)(F)c1ccc(-c2cn3nc(-c4c[nH]c5ccc(Br)cc45)sc3n2)cc1 was what?
false

// return assay outcome for COc1ccc(/C=C/c2nc(-c3n[nH]c(=O)n3-c3ccccc3)c3ccccc3n2)cc1
false

Hey, what did the test say about O=C(CN1C(=O)/C(=C/c2ccc(Cl)cc2)SC1=S)NCCCN1CCOCC1 ?
false

Kindly provide the recorded test outcome for the following molecule: COc1cc(-c2ccc3c(c2)NC(=O)/C3=C\c2ccc[nH]2)ccc1O
false

Which outcome was assigned to COc1ccc(S(=O)(=O)N2CCN(C)CC2)cc1NC(=O)c1[nH]c(C)c2c1CCCCC2=O in this test?
false

Test call, this molecule: CCOC(=O)c1sc(Nc2ccc(Cl)cc2)nc1C
false

Query: recorded result category for Cn1cc(-c2nonc2-c2c[nH]c3ccccc23)c2cccnc21 in this test
false

Per the records of this test, what outcome belongs to Cc1oc(-c2ccc(Cl)cc2Cl)cc1C(=O)Nc1nccs1 ?
false

How was C=C(C)[C@@H]1CC[C@]2(C(=O)OC)CC[C@]3(C)[C@H](CC[C@@H]4[C@@]5(C)C/C(=C/c6cccc(I)c6)C(=O)C(C)(C)[C@@H]5CC[C@]43C)[C@@H]12 classified in this test?
false

Name the outcome recorded for CNc1ccc(-c2cc(=O)oc3ccc(Cl)cc23)cc1 in the assay.
false

In this assay, the call recorded for COc1ccc(C(=O)c2sc3nc(C)cc(C)c3c2N)cc1OC was what?
false

Every entry's value here was drawn from PubChem BioAssay (NCI).
